Source: PubChem BioAssay (NCI)

System: SW-620 colon
Assay: NCI-60 one-dose screen, 48 h
Conditions: 10 µM unless noted
This is part of a sample that, as a whole, favours compounds with a hit. Of some 83,000 tested, about 20% had one in any assay. Active and inactive are the calls of the source. The calls were made as follows: active = growth percent below 10; inactive = the rest.
API: response.call in Yes (active), No (inactive)

See these solved cases before continuing.
1. COC(=O)[C@]12CC[C@@H](C)[C@H](C)[C@@H]1C1=CC[C@@H]3[C@@]4(C)C(C=O)=C[C@@](C)(CO)C4=CC[C@@]3(C)[C@]1(C)CC2 ... No
2. O=C(O)c1ccc(CO)o1 ... No
3. N#C/C(=C\c1ccc2c(c1)OCO2)n1nnc2ccccc21 ... No
4. O=C1N/C(=N/O)S/C1=C/c1cn(-c2ccccc2)nc1-c1ccccc1 ... No
5. C#CC[C@H](N)C(=O)O ... No
6. O=C1C2=C(CCN(Cc3ccccc3)C2)N2CCN=C2N1Cc1ccc(C(F)(F)F)cc1 ... No
7. N=C(N)c1ccc(-c2ccc(-c3ccc(Cl)cn3)s2)cc1 ... Yes
8. C=C1C(=O)O[C@H]2[C@H]1CC/C(COC(=O)NCc1ccc(Cn3c(=O)sn(CCCCl)c3=O)cc1)=C\CC[C@@]1(C)O[C@@H]21 ... Yes

How was O=C1Nc2ccccc2/C1=N/N=C/c1ccc(OC2OC(CO)C(O)C(O)C2O)cc1 (stereo not given) classified in this test? No

Here is the next molecule: CCO/C=N/C1=C(C#N)C(c2ccc(OC)cc2)c2c(c3ccccc3n(C)c2=O)O1 (stereo not given) No

====

Test system: OVCAR-8 ovarian
Experiment: NCI-60 one-dose screen, 48 h (100 = growth as untreated, 0 = no growth, -100 = all killed)
Settings: 10 µM unless noted
Compounds without any hit were thinned out: in the full panel of roughly 83,000, 20% have a hit.
Heads up, the class ranges for growth are class A = under 20%, class B = from 20% up to 30%, class C = 30% and over

See these solved cases before continuing.
1) C[C@@H]1CC[C@@H]2[C@@H]1[C@H](OC(=O)c1ccc3ccccc3c1)[C@]1(C3CCCCC3)C[C@@H](OC(=O)CO)[C@@]2(C)O1 ... class A
2) COc1ccc(/C=C2\COc3ccc(O)cc3C2=O)cc1OC ... class C
3) Cc1cc2c(F)c(Oc3ncnc(Nc4ccc(N5C[C@@H](C)N[C@@H](C)C5)cc4)c3C#N)cc(F)c2[nH]1 ... class B
4) CCCCCCCCc1cc[n+](CC(=O)c2ccc(Br)cc2)cc1 ... class A
5) CC1(C)CC(=O)c2c(ccc(C(=O)C[C@H](N)CO)c2N)O1 ... class C
6) Nc1nc(Nc2ccc(Cl)cc2)nn1S(=O)(=O)c1ccc(-c2ccc(F)cc2)cc1 ... class C
7) CN(C)CCOC(=O)Nc1ccc(Cl)cc1 ... class C
8) N#C/C(=C\c1ccc(Br)cc1)n1nnc2cc(Cl)c(Cl)cc21 ... class B

Turning to the following compound.
Categorize the following entry: `CO[C@H]1/C=C/O[C@@]2(C)Oc3c(C)c(O)c4c(c3C2=O)C(=O)C(/C=N/N(c2ccccc2)c2ccccc2)=C(NC(=O)/C(C)=C\C=C\[C@H](C)[C@H](O)[C@@H](C)[C@@H](O)[C@@H](C)[C@H](OC(C)=O)[C@@H]1C)C4=O` class A

====

Test system: IGROV1 ovarian
Experiment: NCI-60 one-dose screen, 48 h (100 = growth as untreated, 0 = no growth, -100 = all killed)
Conditions: 10 µM unless noted
About 83,000 compounds went through this panel and 20% of them were active in at least one assay; those are over-represented in the sample as a whole. Activity calls are given as the source filed them. Rule for the calls: active = growth percent below 10; inactive = the rest.
Measured growth, listed per entry.

Check out these entries, answers already filled in.
1) NC(=O)CC1(O)C=C(Br)C(=O)C(Br)=C1 ... 82.2% (inactive)
2) CS(=O)(=O)c1ccc(-c2[nH]c3ccc(F)cc3c2/C=N/NC(N)=S)cc1 ... 29% (inactive)
3) CCCCCCCC/C=C\CCCCCCCC(=O)Oc1cccc2cccnc12 ... 85.4% (inactive)

Kindly review the next compound as well.
I'd like to know its growth. The compound in question is O=C1CC(c2ccc3c(c2)OCO3)Nc2cc3c(cc21)OCO3 (centres undefined) 50.4% (inactive)

====

Tested on: LOX IMVI melanoma
Assay: NCI-60 one-dose screen, 48 h
Settings: 10 µM unless noted
The panel holds about 83,000 compounds, 20% with a hit somewhere; the sample as a whole holds those more often. Activity calls are given as the source filed them. How the source made its calls: active means growth percent below 10; inactive means the rest.
API: response.call in active, inactive

1) Cc1cc(C)on1 ... inactive
2) COc1ccc(-c2nnc(-c3ccc4c(c3)nc(-c3ccccc3)n4C3CCCCC3)o2)cc1 ... inactive
3) N#Cc1c(-c2ccc(C(F)(F)F)cc2)cc(N2CC(O)C2)n2c1nc1ccccc12 ... inactive
4) CCOC(=O)C1=C(C)NC(SCc2nnc(-c3ccc(Cl)cc3)o2)=NC1c1ccc(Cl)cc1Cl (stereo unspecified) ... inactive
5) Cc1c(C(N)=O)sc2nc(C)n(/N=c3\scc(-c4ccccc4)n3Cc3ccccc3)c(=O)c12 ... inactive

How was `COc1ccc(/C=C2\COc3ccc(O)c(O)c3C2=O)c(OC)c1` classified in this test? inactive

Here is the next compound: `O=C(Nc1ccc(N2CCCCC2)c(Cl)c1)c1ccc(Br)o1` active

Here is the next compound: `Cl.Fc1c[c-]c(-c2ccccn2)c(F)c1.[Pt].c1ccc([PH+](C[PH+](c2ccccc2)c2ccccc2)c2ccccc2)cc1` active

Here is the next compound: `C=C1C(=O)O[C@H]2[C@H]1CC/C(COC(=O)/C=C\C(=O)NCc1ccc(Cn3c(=O)sn(-c4ccc(Cl)cc4)c3=O)cc1)=C\CC[C@@]1(C)O[C@@H]21` active

Here is the next compound: `N[C@@H]1CCC[C@H]1NCCCCN1C(=O)c2cccc3cccc(c23)C1=O` inactive

====

Test system: EKVX NSCLC
Test: NCI-60 one-dose screen, 48 h (100 = growth as untreated, 0 = no growth, -100 = all killed)
Settings: 10 µM unless noted
About 83,000 compounds went through this panel and 20% of them were active in at least one assay; those are over-represented in the sample as a whole.
Measured growth, listed per entry.
Enter your answer as a number in %; do not include the unit.

1. OC(COc1cccc2ccccc12)CN1CCN(c2ccccc2)CC1 (stereo not drawn) ... 103
2. COc1ccc(O)c(-c2cc(-c3ccccc3)c(C#N)c(=O)[nH]2)c1 ... 104
3. CC(=O)c1sc(-c2ccccc2)cc1N ... 44.4

I'd like to know its growth. The molecule in question is `Cc1ccc(C)c2c1C(=O)OC2=O` 105

Here is the next molecule: `Cn1c(NCCc2ccc(O)c(O)c2)nc2c1c(=O)n(Cc1ccc(Cl)cc1)c(=O)n2C` 84.8

Here is the next molecule: `Cc1c2c(cn1Cc1ccccc1)CCc1cn(C)nc1-2` 73.2

Here is the next molecule: `O=[N+]([O-])c1ccc2[nH]cc(-c3c4ccsc4cc4[nH]c5ccc([N+](=O)[O-])cc5c34)c2c1` 29

Here is the next molecule: `O=C(CCc1nc(-c2cccc(Cl)c2)no1)Nc1ccccn1` 92.6

====

System: NCI-H23 lung
Assay: NCI-60 one-dose screen, 48 h
Settings: 10 µM unless noted
About 83,000 compounds went through this panel and 20% of them were active in at least one assay; those are over-represented in the sample as a whole. Calls of active or inactive are those of the source. How the source made its calls: active means growth percent below 10; inactive means the rest.
API: response.call in active, inactive

How was `CCN1CCN(c2ccc(Nc3cc(-c4cccnc4Nc4c(Cl)c(OC)cc(OC)c4Cl)ncn3)cc2)CC1` classified in this test? inactive

Here is the next compound: `C[C@H]1[C@H](C)CC[C@]2(C(=O)N3CCN(C)CC3)CC[C@]3(C)C(=CC[C@@H]4[C@@]5(C)C/C(=C/c6cccnc6)C(=O)C(C)(C)[C@@H]5CC[C@]43C)[C@H]12` active

Here is the next compound: `Nc1c(C(=O)c2ccccc2)nnc2ncnn12` inactive

Here is the next compound: `N#Cc1c(N)n2c(nc1=Nc1ccc([N+](=O)[O-])cc1)sc1cc(Cl)ccc12` inactive

Here is the next compound: `Cc1cc(N(CCCNc2ccnc3cc(Cl)ccc23)Cc2ccccn2)nc(N2CCOCC2)n1` inactive

Here is the next compound: `Cc1nc(Nc2ccc(S(=O)(=O)Nc3cc(C)on3)cc2)c2ccccc2n1` inactive

====

Test system: HCC-2998 colon
Assay: NCI-60 one-dose screen, 48 h
Conditions: 10 µM unless noted
About 83,000 compounds went through this panel and 20% of them were active in at least one assay; those are over-represented in the sample as a whole. The source made the active and inactive calls. How the source made its calls: active means growth percent below 10; inactive means the rest.
API: response.call in active, inactive

See these solved cases before continuing.
1) O=C1Nc2ccccc2SC1c1ccccc1Cl (stereo unspecified) ... inactive
2) COc1ccc2c(c1)/C(=C\c1sc(=S)[nH]c1O)C(C(=O)O)=N2 ... inactive
3) O=C(NC1CCOCC1)c1ccc2c(c1)CN(c1ncc(Cc3cccc(-n4cccn4)c3)s1)CC2 ... inactive
4) CCN(CC)CCCNC(=O)c1ccc(N)cc1 ... inactive
5) CC(=O)Nc1cccc(C2=CC(c3ccc(C)cc3)n3ncnc3N2)c1 (stereo unspecified) ... inactive
6) O=C(CC12CC3CC(CC(C3)C1)C2)NCCOCCOCCNC(=O)c1cc2c(o1)C(=O)c1ccccc1C2=O ... active
7) Cc1cc(C)on1 ... inactive
8) CCn1c(Sc2nnc(NC(=O)CSC(=S)N3CCCCC3)s2)nc2c1c(=O)n(C)c(=O)n2C ... inactive
9) C=C1C(=O)O[C@H]2[C@H]1CC/C(C(=O)NCCCCCCCCNC(=O)/C1=C/CC[C@@]3(C)O[C@H]3[C@H]3OC(=O)C(=C)[C@@H]3CC1)=C\CC[C@@]1(C)O[C@@H]21 ... inactive
10) CCNCCNc1cc(-c2ccc(C(=O)OC)cc2)c(C#N)c2nc3ccccc3n12 ... inactive

How was `CN(C)c1ccc(/C=N/NC(=O)COc2cc(=O)n(C)c3ccccc23)cc1` classified in this test? inactive

Here is the next molecule: `CN(C)c1cnccn1` inactive

Here is the next molecule: `O=C1Nc2ccccc2/C1=N/N=C/c1c[nH]c2ccccc12` inactive

Here is the next molecule: `CCOC(=O)c1c(C)[nH]c(C(=O)CCC(=O)OC)c1C` inactive

Here is the next molecule: `CCCCN(CCCC)CCCn1c(=O)c2sc3ncccc3c2n2nnc(-c3ccccc3)c12` inactive

Here is the next molecule: `Clc1ccc(-c2nnc(Cn3ccnc3)o2)cc1` inactive
